# Test system: RPMI-8226 leukemia
# Assay remarks: NCI tumour cell line growth inhibition, 48 h
Quantity: TGI

compound=NC(=S)NC/C=C/Cl measured_value="> 100 µM"
compound="COC1=CC(=O)N(C)C(O)C1(C#N)OC1OC(CO)C(O)C(O)C1O (stereo not drawn)" measured_value="> 100 µM"
compound=Oc1ccc(-c2nc3ccccc3s2)cc1 measured_value="> 100 µM"

----------
# Tested on: SR leukemia
# Assay remarks: NCI tumour cell line growth inhibition, 48 h
Quantity: TGI

compound=O=C(O)/C=C\C(=O)Nn1c(Cc2ccc(Cl)cc2)n[nH]c1=O measured_value="> 100 µM"
compound="CCC(=O)OC1CCn2c1nc1c2C(=O)C(C)=C(NC(C)=O)C1=N (configuration not stated)" measured_value="> 100 µM"
compound="C=C1C(O)C2CC(C)(CO)C(=O)C2=C(CC(C)C)C12CC2 (configuration not stated)" measured_value="> 100 µM"
compound="CCSC1=CC2(O)N(CCc3ccc(OC)c(OC)c3)C(=O)CC2(C(=O)OC)CC1=O (configuration not stated)" measured_value="58.6 µM"
compound=O=C1NC(N2CCOCC2)=N/C1=C\c1ccc(O)cc1 measured_value="> 100 µM"
compound="CN(C)CC1CCC(CN(C)C)C(=O)C1=O (configuration not stated)" measured_value="5.08 µM"
compound=CC(=O)N1CCN(CCNC(=O)n2cc(-c3ccncc3)c(-c3cc(O)cc(Cl)c3)n2)CC1 measured_value="22.5 µM"
compound=O=[Se](O)O measured_value="> 28.6 µM"
compound=COc1nc(C#CC2CCCCC2)nc(OC)n1 measured_value="> 100 µM"
compound="Cc1ccc(S(=O)(=O)NC(=O)C2=C3SCCN3C(=O)N(S(=O)(=O)c3ccc(C)cc3)C2c2ccccc2)cc1 (configuration not stated)" measured_value="> 100 µM"
compound=Cc1ncc(COP(=O)(O)O)c(/C=C2\SC(=S)NC2=O)c1O measured_value="> 100 µM"
compound=COC(NC(=O)Nc1ccccc1C)(C(F)(F)F)C(F)(F)F measured_value="> 100 µM"

----------
# System: RPMI-8226 leukemia
# Assay remarks: NCI tumour cell line growth inhibition, 48 h
Quantity: TGI

compound=CC(C)=CCC[C@@H](C)C1=C(O)C(Nc2ccccc2I)=C(C)C(=O)C1=O quantity=TGI measured_value="> 36.8 µM"
compound=Cn1cc(C2=C(c3c[nH]c4ccccc34)C(=O)NC2=O)c2ccccc21 quantity=TGI measured_value="> 20.8 µM"
compound="C[C@H](C1CC2(C)OC2(C)C(=O)O1)[C@H]1CC[C@H]2[C@@H]3[C@@H]4O[C@@H]4[C@@]4(O)CC=CC(=O)[C@]4(C)[C@H]3CC[C@]12C (stereo not given in full)" quantity=TGI measured_value="> 50 µM"
compound=CCCCCCSSC(=S)N(CC)CC quantity=TGI measured_value="> 100 µM"
compound=Cn1c(=O)sc2cc(C(=S)N3CCCCC3)ccc21 quantity=TGI measured_value="> 100 µM"
compound="O=C1C2C=CC(n3[nH]c(=O)n(Cc4ccccc4)c3=O)CC2C(=O)N1c1ccc(Br)cc1 (stereo not given)" quantity=TGI measured_value="> 100 µM"
compound="CC1OC(=O)C(O)=C1O (stereo not given)" quantity=TGI measured_value="> 100 µM"
compound=O=C(O)/C(Cc1ccnc2ccccc12)=N\O quantity=TGI measured_value="> 100 µM"
compound=O=C(NC(=O)c1c(Cl)nc2sccn12)Nc1ccc(Cl)cc1 quantity=TGI measured_value="> 100 µM"
compound="Cc1ccc2nc(NC(=O)C(=O)C(C#N)c3ccc(Cl)cc3)sc2c1 (stereo not given)" quantity=TGI measured_value="> 50 µM"
compound="NC(N)=NC1C(O)C(O)C(O)C(N=C(N)N)C1O (stereo not given)" quantity=TGI measured_value="> 100 µM"
compound=CC1(C)C=C(/C=N/Nc2ccccc2)C(C#N)=C(O)C1(C#N)C#N quantity=TGI measured_value="> 100 µM"
compound=COc1ccc(Oc2ccccc2N)cc1 quantity=TGI measured_value="> 100 µM"
compound="CCOC1=C(c2ccccc2)N2CCCCC2O1 (stereo not given)" quantity=TGI measured_value="> 24 µM"
compound=Nc1c(S(=O)(=O)O)cc(S(=O)(=O)O)c2ccc(N=Nc3ccc(/C=C/c4ccc(N=Nc5ccc6c(S(=O)(=O)O)cc(S(=O)(=O)O)c(N)c6c5O)cc4S(=O)(=O)O)c(S(=O)(=O)O)c3)c(O)c12 quantity=TGI measured_value="> 100 µM"
compound=COC(=O)Nc1nc2ccc(NC(=O)c3ccc(I)cc3)cc2[nH]1 quantity=TGI measured_value="> 100 µM"
compound=COc1ccc2nc(C(=O)c3ccccc3)c(C)cc2c1 quantity=TGI measured_value="> 100 µM"
compound="O=C1NC(Cc2ccc(O)cc2)C(=O)NC1Cc1ccc(O)cc1 (stereo not given)" quantity=TGI measured_value="> 100 µM"
compound=Cc1nc(Nc2ccccc2Cl)sc1C(=O)CC(=O)C(N)=O quantity=TGI measured_value="> 100 µM"
compound=O=C1NC(N2CCOCC2)=N/C1=C\c1ccc(O)cc1 quantity=TGI measured_value="> 100 µM"
